# tested system: T1, human Trop-2 expressed on cell surface (human, UniProt P09758 27-323)
# T1 sequence (looked up): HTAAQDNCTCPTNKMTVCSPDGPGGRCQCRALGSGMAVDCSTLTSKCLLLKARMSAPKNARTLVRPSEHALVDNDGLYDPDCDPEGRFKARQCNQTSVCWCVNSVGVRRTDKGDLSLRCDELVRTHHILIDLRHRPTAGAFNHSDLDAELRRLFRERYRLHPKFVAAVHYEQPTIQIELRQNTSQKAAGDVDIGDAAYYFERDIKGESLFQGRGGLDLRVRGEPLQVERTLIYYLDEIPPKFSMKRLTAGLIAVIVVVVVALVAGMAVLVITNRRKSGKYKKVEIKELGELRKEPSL
# method description: cell-based or functional assay
Binary label based on Internalization %, MDA-MB-231, 0.5 µg/ml, 4 h with cut-off 50%: below gives T, not below gives F.

binder	class assignment
5D4 (antibody, V domains shown, Rabbit-derived clone; LEM construct: VH + rabbit IgG CH1 + human IgG1 CH2-CH3) VH: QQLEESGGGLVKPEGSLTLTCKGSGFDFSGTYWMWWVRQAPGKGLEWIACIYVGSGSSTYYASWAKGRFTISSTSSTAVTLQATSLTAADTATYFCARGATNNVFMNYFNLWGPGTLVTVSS VL: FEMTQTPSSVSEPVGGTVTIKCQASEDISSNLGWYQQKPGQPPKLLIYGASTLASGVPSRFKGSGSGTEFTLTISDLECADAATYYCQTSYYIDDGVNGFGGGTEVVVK	F
63H3 (antibody, V domains shown, Rabbit-derived clone; LEM construct: VH + rabbit IgG CH1 + human IgG1 CH2-CH3) VH: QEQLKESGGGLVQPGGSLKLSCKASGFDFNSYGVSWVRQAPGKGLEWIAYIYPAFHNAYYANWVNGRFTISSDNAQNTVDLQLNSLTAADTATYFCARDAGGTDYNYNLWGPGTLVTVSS VL: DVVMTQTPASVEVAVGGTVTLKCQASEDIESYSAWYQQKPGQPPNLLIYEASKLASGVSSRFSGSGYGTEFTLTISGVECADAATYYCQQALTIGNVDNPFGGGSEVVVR	T
9D7-2 (antibody, V domains shown) VH: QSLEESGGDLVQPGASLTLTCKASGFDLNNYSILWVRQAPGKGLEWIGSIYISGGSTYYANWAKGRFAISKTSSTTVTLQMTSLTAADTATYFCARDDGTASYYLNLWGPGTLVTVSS VL: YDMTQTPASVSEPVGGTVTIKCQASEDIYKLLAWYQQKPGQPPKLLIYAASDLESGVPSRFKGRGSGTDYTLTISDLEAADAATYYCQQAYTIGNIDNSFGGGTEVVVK	F
9D7 (antibody, V domains shown, Rabbit-derived clone; LEM construct: VH + rabbit IgG CH1 + human IgG1 CH2-CH3) VH: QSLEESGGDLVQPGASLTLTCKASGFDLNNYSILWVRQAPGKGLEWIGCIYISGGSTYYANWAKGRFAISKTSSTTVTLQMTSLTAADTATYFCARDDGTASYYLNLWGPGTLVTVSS VL: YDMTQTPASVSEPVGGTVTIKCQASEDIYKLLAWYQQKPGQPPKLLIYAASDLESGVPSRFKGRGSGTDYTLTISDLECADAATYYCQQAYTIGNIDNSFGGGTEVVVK	F
10A9 (antibody, V domains shown, Rabbit-derived clone; LEM construct: VH + rabbit IgG CH1 + human IgG1 CH2-CH3) VH: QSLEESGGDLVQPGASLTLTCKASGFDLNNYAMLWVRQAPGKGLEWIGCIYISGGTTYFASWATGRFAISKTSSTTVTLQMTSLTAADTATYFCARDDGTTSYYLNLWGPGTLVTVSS VL: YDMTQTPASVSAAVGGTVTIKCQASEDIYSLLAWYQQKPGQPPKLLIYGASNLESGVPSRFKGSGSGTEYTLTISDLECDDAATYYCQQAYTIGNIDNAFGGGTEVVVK	F
62E3 (antibody, V domains shown, Rabbit-derived clone; LEM construct: VH + rabbit IgG CH1 + human IgG1 CH2-CH3) VH: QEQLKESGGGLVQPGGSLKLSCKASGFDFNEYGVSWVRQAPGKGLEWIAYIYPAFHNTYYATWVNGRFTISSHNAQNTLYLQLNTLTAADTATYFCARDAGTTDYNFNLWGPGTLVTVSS VL: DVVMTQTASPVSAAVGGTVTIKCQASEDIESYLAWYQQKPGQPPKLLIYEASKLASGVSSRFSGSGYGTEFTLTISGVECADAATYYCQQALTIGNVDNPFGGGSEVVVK	T
74F11/15F5 (antibody, human IgG1, V domains shown, LEM construct: VH + rabbit IgG CH1 + human IgG1 CH2-CH3) VH: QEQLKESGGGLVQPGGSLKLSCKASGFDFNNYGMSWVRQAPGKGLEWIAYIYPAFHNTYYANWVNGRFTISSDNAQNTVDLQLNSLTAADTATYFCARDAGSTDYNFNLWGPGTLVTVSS VL: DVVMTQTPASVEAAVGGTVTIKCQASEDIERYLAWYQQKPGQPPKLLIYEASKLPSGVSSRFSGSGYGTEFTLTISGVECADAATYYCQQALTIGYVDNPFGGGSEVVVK	T
9F7 (antibody, V domains shown, Rabbit-derived clone; LEM construct: VH + rabbit IgG CH1 + human IgG1 CH2-CH3) VH: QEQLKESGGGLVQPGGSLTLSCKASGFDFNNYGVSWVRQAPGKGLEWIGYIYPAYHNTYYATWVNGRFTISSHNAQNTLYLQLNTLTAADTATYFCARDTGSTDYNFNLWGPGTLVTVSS VL: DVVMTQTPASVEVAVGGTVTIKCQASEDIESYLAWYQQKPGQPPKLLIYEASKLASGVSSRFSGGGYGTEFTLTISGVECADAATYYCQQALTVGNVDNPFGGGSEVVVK	T
10A9-2 (antibody, V domains shown) VH: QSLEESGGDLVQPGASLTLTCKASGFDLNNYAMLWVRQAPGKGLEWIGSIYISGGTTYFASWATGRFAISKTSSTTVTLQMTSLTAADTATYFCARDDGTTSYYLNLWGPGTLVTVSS VL: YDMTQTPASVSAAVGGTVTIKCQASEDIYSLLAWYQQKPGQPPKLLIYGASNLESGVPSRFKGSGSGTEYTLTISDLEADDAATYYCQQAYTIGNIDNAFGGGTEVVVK	F
5D4-2 (antibody, V domains shown) VH: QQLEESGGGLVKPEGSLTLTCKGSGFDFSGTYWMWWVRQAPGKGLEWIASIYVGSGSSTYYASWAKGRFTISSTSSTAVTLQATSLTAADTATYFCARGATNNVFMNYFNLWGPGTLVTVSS VL: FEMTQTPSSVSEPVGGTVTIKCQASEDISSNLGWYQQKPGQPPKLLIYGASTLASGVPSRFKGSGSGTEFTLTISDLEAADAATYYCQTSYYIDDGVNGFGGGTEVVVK	F
